tested on: Mus musculus; experiment: Anticonvulsant activity in ip dosed mouse assessed as protection against ScPTZ-induced epilepsy measured after 0.5 hrs by subcutaneous pentylenetetrazole test; type: functional
Strictly below 100 mg/kg in ED50: Y. Otherwise: N.

CN1CCN(CN2C(=O)CC(Cc3ccccc3)C2=O)CC1.Cl (racemic) = Y
CCCC(CCC)C(=O)O = N
CC(c1ccccc1)C1CC(=O)N(CN2CCN(C)CC2)C1=O.Cl (racemic) = Y
O=C1CC(Cc2ccccc2)C(=O)N1CN1CCOCC1 (racemic) = Y

---

test: Protection index, ratio of TD50 for neurotoxicity in ip dosed mouse to ED50 for anticonvulsant activity in ip dosed mouse by subcutaneous pentylenetetrazole test; type: toxicity, organism-based; details: in vivo, read-out: PI
measure: selectivity ratio

O=C1CC(C(c2ccccc2)c2ccccc2)C(=O)N1CN1CCN(c2cccc(C(F)(F)F)c2)CC1 (stereo unspecified) = > 6.84

---

Quick reference for TD50 among some compounds
assay: Neurotoxicity activity in ip dosed mouse assessed as induction of motor impairment by rotarod test; type: toxicity, organism-based; details: in vivo
measure: TD50 (mg/kg)

Cl.O=C1CC(Cc2ccccc2)C(=O)N1CN1CCN(CCO)CC1 (racemic) = 344
CC(c1ccccc1)C1CC(=O)N(CN2CCN(C3CCCCC3)CC2)C1=O (racemic) = 196
CC(c1ccccc1)C1CC(=O)N(CN2CCN(C)CC2)C1=O.Cl (racemic) = 229
O=C1CC(Cc2ccccc2)C(=O)N1CN1CCOCC1 (racemic) = 179
COc1ccccc1N1CCN(CN2C(=O)CC(C(C)c3ccccc3)C2=O)CC1 (stereo not given) = 128

---

system: Mus musculus; test: Anti-convulsant activity in ip dosed mouse assessed as protection against psychomotor seizures measured after 0.5 hrs by 6 Hz limbic seizure test; type: functional
Strictly below 50 mg/kg in ED50: Fulfilled. Otherwise: Not fulfilled.

CN1CCN(CN2C(=O)CC(Cc3ccccc3)C2=O)CC1.Cl (racemic) = Not fulfilled
Cl.O=C1CC(Cc2ccccc2)C(=O)N1CN1CCN(CCO)CC1 (racemic) = Not fulfilled
COC[C@@H](NC(C)=O)C(=O)NCc1ccccc1 [LACOSAMIDE] = Fulfilled
CC(c1ccccc1)C1CC(=O)N(CN2CCN(C)CC2)C1=O.Cl (racemic) = Fulfilled
CCCC(CCC)C(=O)O = Not fulfilled
CC(c1ccccc1)C1CC(=O)N(CN2CCN(CCO)CC2)C1=O.Cl (racemic) = Fulfilled
O=C1CC(Cc2ccccc2)C(=O)N1CN1CCOCC1 (racemic) = Not fulfilled
CC(c1ccccc1)C1CC(=O)N(CN2CCN(C3CCCCC3)CC2)C1=O (racemic) = Not fulfilled

---

test: Protection index, ratio of TD50 for neurotoxicity in ip dosed mouse to ED50 for anticonvulsant activity in ip dosed mouse measured after 0.5 hrs by 6 Hz limbic seizure test; format: toxicity, organism-based; conditions: in vivo, read-out: PI
Quick reference for selectivity ratio at 0.5 h among some compounds
measure: selectivity ratio at 0.5 h

CC(c1ccccc1)C1CC(=O)N(CN2CCN(CCO)CC2)C1=O.Cl (racemic) = 9.66
CC(c1ccccc1)C1CC(=O)N(CN2CCN(C3CCCCC3)CC2)C1=O (racemic) = 2.61
Cl.O=C1CC(Cc2ccccc2)C(=O)N1CN1CCN(CCO)CC1 (racemic) = 4.85
CN1CCN(CN2C(=O)CC(Cc3ccccc3)C2=O)CC1.Cl (racemic) = 5
O=C1CC(Cc2ccccc2)C(=O)N1CN1CCOCC1 (racemic) = 3.37
CC(c1ccccc1)C1CC(=O)N(CN2CCN(C)CC2)C1=O.Cl (racemic) = 6.36
COC[C@@H](NC(C)=O)C(=O)NCc1ccccc1 [LACOSAMIDE] = 5.66
